The origin of these recorded values is ChEMBL document CHEMBL1135729.

Target: Glutamate receptor ionotropic, AMPA (Rattus norvegicus, UniProt P19490+P19491+P19492+P19493)
Assay: Displacement of [3H]AMPA from Ionotropic glutamate receptor AMPA in rat cortical membranes.
Format: cell membranes, Membrane
Checkbox rule: Ki lower than 3 µM = yes; Ki not lower than 3 µM = no.

Consider the worked cases shown below.
{"compound": "CCOC(=O)c1cc2c3ccccc3[nH]c(=O)n2n1", "cat": "no"}
{"compound": "O=C(O)c1cc2c3cc([N+](=O)[O-])c(Cl)cc3[nH]c(=O)n2n1", "cat": "yes"}
{"compound": "O=C(O)c1cc2c3ccccc3nc(O)n2n1", "cat": "no"}
{"compound": "O=C(O)c1cc2c3ccc(Cl)cc3nc(O)n2n1", "cat": "yes"}
{"compound": "O=C(O)C1=NN2C(=O)Nc3ccccc3C2C1 (stereo not given)", "cat": "no"}

Does the reported Ki of CCOC(=O)c1cc2c3cc([N+](=O)[O-])c(Cl)cc3[nH]c(=O)n2n1 stay below 3 µM? no

Does the reported Ki of O=C(O)c1cc2c3cc(-n4cnnc4)c(Cl)cc3[nH]c(=O)n2n1 stay below 3 µM? yes

Does the reported Ki of COC(=O)C1=NN2C(=O)Nc3cc(Cl)c(Cl)cc3C2C1 (stereo not given) stay below 3 µM? no

Does the reported Ki of CCOC(=O)c1cc2c3ccc(Cl)cc3[nH]c(=O)n2n1 stay below 3 µM? no

Does the reported Ki of O=C(O)c1cc2c3cc([N+](=O)[O-])ccc3nc(O)n2n1 stay below 3 µM? no

Does the reported Ki of COC(=O)C1=NN2C(=O)Nc3cc(Cl)ccc3C2C1 (stereo not given) stay below 3 µM? no

Does the reported Ki of O=C(O)c1cc2c3cc(Cl)c(Cl)cc3[nH]c(=O)n2n1 stay below 3 µM? yes

Does the reported Ki of O=C(O)C1=NN2C(=O)Nc3cc(Cl)c(Cl)cc3C2C1 (stereo not given) stay below 3 µM? yes

Does the reported Ki of CCOC(=O)c1cc2c3cc(-n4cnnc4)c(Cl)cc3nc(O)n2n1 stay below 3 µM? yes

Does the reported Ki of O=C(O)C1=NN2C(=O)Nc3cc(Cl)ccc3C2C1 (stereo not given) stay below 3 µM? no

---

Target: Glutamate receptor ionotropic, kainate (Rattus norvegicus) (UniProt P22756+Q01812+P42260+P42264+Q63273)
Test: Percent Inhibition of specific [3H]KA binding to Ionotropic glutamate receptor in rat cortical membranes.
Format: cell membranes
Set-up: concentration or dose not given beside the values
Conditions: Membrane; concentration not given here
Decision: inhibition >= 10% yields condition met, all other cases yield condition not met.

{"molecule": "CCOC(=O)c1cc2c3cc([N+](=O)[O-])ccc3nc(O)n2n1", "cat": "condition not met"}
{"molecule": "CCOC(=O)c1cc2n(n1)C(C(=O)O)Nc1ccccc1-2 (centres undefined)", "cat": "condition not met"}
{"molecule": "O=C(O)C1=NN2C(=O)Nc3cc(Cl)ccc3C2C1 (centres undefined)", "cat": "condition met"}
{"molecule": "CCOC(=O)c1cc2n(n1)C(C(=O)O)Nc1cc(Cl)ccc1-2 (centres undefined)", "cat": "condition not met"}
{"molecule": "CCOC(=O)c1cc2c3cc(N)c(Cl)cc3nc(O)n2n1", "cat": "condition met"}
{"molecule": "O=C(O)c1cc2n(n1)C(C(=O)O)Nc1ccccc1-2 (centres undefined)", "cat": "condition met"}

Hello, I need to know if O=C(O)c1cc2c3ccccc3nc(O)n2n1 has measured inhibition not below 10%. Thanks! condition met
